system.tested: PI3K p110α/p85 (Homo sapiens, UniProt P42336)
Sequence (P42336 whole entry): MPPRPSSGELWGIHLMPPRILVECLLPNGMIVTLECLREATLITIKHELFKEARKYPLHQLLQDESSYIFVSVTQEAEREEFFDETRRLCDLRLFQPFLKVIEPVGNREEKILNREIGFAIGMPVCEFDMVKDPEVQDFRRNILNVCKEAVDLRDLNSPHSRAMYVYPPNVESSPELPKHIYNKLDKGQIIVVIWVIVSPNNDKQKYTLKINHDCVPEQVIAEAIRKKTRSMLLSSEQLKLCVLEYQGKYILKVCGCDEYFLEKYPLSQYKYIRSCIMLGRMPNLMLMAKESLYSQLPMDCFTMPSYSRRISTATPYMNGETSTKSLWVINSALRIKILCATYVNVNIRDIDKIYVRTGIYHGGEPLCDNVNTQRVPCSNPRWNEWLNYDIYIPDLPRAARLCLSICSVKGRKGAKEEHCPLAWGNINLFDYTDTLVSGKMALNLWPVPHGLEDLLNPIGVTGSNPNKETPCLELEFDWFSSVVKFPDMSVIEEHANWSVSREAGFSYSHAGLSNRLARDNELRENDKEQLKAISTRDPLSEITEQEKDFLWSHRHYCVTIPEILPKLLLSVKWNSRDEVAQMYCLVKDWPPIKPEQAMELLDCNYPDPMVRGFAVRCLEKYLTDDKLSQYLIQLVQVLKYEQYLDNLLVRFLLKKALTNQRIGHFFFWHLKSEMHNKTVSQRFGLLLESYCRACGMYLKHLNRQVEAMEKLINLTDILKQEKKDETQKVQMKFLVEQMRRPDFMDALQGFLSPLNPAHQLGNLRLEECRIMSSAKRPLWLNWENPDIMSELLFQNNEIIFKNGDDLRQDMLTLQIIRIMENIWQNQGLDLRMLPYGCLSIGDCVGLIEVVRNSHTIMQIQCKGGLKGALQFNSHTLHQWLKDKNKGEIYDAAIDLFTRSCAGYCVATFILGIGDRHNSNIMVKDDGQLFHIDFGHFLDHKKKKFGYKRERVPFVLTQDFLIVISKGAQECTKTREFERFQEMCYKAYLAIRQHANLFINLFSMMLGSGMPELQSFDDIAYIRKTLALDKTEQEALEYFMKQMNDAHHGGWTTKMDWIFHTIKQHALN
Sequence (P27986 whole entry partner): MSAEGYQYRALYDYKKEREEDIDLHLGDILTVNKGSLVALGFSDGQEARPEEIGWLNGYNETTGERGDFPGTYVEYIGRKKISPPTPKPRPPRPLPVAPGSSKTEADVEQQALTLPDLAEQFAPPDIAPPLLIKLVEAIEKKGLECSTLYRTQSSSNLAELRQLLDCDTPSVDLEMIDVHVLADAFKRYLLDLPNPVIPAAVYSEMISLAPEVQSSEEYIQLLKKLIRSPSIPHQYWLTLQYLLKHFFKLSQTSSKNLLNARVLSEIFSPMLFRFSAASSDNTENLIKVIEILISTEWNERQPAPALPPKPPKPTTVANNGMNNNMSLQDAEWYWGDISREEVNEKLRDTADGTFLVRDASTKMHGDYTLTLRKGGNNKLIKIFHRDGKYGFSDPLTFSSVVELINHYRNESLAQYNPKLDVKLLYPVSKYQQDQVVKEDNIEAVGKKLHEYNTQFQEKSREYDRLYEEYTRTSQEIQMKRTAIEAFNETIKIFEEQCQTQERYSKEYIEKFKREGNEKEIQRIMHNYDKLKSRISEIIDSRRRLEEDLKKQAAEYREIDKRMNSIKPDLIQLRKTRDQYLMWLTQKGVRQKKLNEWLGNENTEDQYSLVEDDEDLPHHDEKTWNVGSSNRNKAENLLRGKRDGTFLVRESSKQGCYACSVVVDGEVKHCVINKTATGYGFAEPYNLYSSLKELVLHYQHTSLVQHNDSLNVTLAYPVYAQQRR
test.description: PI3K assay ([γ33P]ATP, PtdIns/PtdSer coated plates)
test.context: 2 μM ATP, 1 hour at RT; read-out: IC50 (PI3Kα)
metric.name: IC50

[[record]]
compound_structure = "Nc1ccc(-c2nc(N3CCOCC3)nc3c2ncn3Cc2cccc([N+](=O)[O-])c2)cn1"
system_tested = "PI3K p110α/p85 (Homo sapiens, UniProt P42336)"
metric_name = "IC50"
data_value = "< 1000 nM"

[[record]]
compound_structure = "Oc1cccc(-c2nc(N3CCOCC3)nc3c2ncn3Cc2cccc(F)c2)c1"
system_tested = "PI3K p110α/p85 (Homo sapiens, UniProt P42336)"
metric_name = "IC50"
data_value = "< 1000 nM"


In plain terms, `CC(=O)Nc1cccc(-c2nc(N3CCOCC3)nc3c2ncn3Cc2ccccc2)c1` has a documented IC50 of > 5000 nM

In plain terms, `Oc1cccc(-c2nc(N3CCOCC3)nc3c2ncn3C2CCCC2)c1` has a documented IC50 of < 1000 nM

====

Recorded measurements of pIC50, one per entry
system.tested: PI3K p110α/p85 (Homo sapiens)
test.description: PI3K assay ([γ33P]ATP, PtdIns/PtdSer coated plates)
test.context: 2 μM ATP, 1 hour at RT; read-out: IC50 (PI3Kα)
pIC50: −log10 of the molar value.

[[record]]
molecule = "O=C(CCN1CCCCC1)Nc1ccc(Cn2cnc3c(-c4cccc(O)c4)nc(N4CCOCC4)nc32)cc1"
data_value = "> 6.00"

[[record]]
molecule = "COCC(C)n1cnc2c(-c3ccc(N)nc3)nc(N3CCOCC3)nc21 (stereo not shown)"
data_value = "> 6.00"

[[record]]
molecule = "Oc1cccc(-c2nc(N3CCOCC3)nc3c2ncn3CCOc2ccccc2)c1"
data_value = "> 6.00"

[[record]]
molecule = "CC(C)Cn1cnc2c(-c3cccc4[nH]ccc34)nc(N3CCOCC3)nc21"
data_value = "> 6.00"

[[record]]
molecule = "COc1cccc(Cn2cnc3c(-c4ccc5cc[nH]c5c4)nc(N4CCOCC4)nc32)c1"
data_value = "< 5.30"


In plain terms, `COCCn1cnc2c(-c3cccc4[nH]ccc34)nc(N3CCOCC3)nc21` has a documented pIC50 of > 6.00

====

system.tested: PI3K p110α/p85 (Homo sapiens, UniProt P42336)
test.description: PI3K assay ([γ33P]ATP, PtdIns/PtdSer coated plates)
test.context: 2 μM ATP, 1 hour at RT; read-out: IC50 (PI3Kα)
Recorded measurements of IC50, one per entry

[[record]]
compound = "CCC(C)n1c(NCCOC)nc2c(-c3cccc(O)c3)nc(N3CCOCC3)nc21 (centres unmarked) [Compound 128]"
metric_name = "IC50"
data_value = "< 1 µM"

[[record]]
compound = "Oc1cccc(-c2nc(N3CCOCC3)nc3c2ncn3Cc2c(F)cccc2F)c1 [Compound 7]"
metric_name = "IC50"
data_value = "< 1 µM"

[[record]]
compound = "O=C(Nc1ccc(Cl)cc1)N1CCC(n2cnc3c(-c4cccc5[nH]ccc45)nc(N4CCOCC4)nc32)CC1 [Compound 106]"
metric_name = "IC50"
data_value = "< 1 µM"

[[record]]
compound = "CS(=O)(=O)N1CCN(C(=O)Cn2cnc3c(-c4cccc(O)c4)nc(N4CCOCC4)nc32)CC1 [Compound 107]"
metric_name = "IC50"
data_value = "< 1 µM"

[[record]]
compound = "CCC(C)n1c(N(C)C)nc2c(-c3cccc(O)c3)nc(N3CCOCC3)nc21 (centres unmarked) [Compound 121]"
metric_name = "IC50"
data_value = "< 1 µM"


In plain terms, CCC(C)n1c(N2CCCC2)nc2c(-c3cccc(O)c3)nc(N3CCOCC3)nc21 (centres unmarked) [Compound 125] has a documented IC50 of < 1 µM

In plain terms, CCN(CC)CCn1cnc2c(-c3cccc(O)c3)nc(N3CCOCC3)nc21 [Compound 98] has a documented IC50 of < 1 µM

In plain terms, Oc1cccc(-c2nc(N3CCOCC3)nc3c2ncn3CC2CCCCC2)c1 [Compound 72] has a documented IC50 of 1 to 5 µM
